All values here come from ChEMBL document CHEMBL2434936.

# STUDY_SYSTEM: Histamine H3 receptor (Homo sapiens)
# Sequence (Q9Y5N1 whole entry): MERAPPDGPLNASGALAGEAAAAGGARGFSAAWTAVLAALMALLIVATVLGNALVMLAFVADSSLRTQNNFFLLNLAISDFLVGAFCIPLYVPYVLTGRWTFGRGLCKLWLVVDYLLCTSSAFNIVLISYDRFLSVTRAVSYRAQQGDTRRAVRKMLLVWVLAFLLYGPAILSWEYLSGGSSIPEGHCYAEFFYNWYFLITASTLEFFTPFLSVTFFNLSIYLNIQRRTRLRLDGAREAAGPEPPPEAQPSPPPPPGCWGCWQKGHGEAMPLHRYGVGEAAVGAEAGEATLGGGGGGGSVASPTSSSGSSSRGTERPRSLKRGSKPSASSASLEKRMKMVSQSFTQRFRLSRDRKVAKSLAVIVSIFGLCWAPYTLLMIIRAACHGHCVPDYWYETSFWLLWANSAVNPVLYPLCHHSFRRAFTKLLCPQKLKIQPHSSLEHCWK
# TEST_METHOD_NOTES: Displacement of [3H]N-alpha-methylhistamine from human recombinant histamine H3 receptor expressed in HEK cells after 30 mins by scintillation counting analysis
MEASUREMENT_LABEL: pKi
// returns pKi (minus log10 of molar concentration), number only

QUERY: Look up Histamine H3 receptor (Homo sapiens) data: pKi of `Nc1cc(CN2CCC(F)(C(=O)N3CCC(N4CCc5ccccc5CC4)CC3)CC2)ccn1` , then report it.
RESULT: 9.00

QUERY: State pKi on Histamine H3 receptor (Homo sapiens). Entry: `Cc1nnc2n1-c1sccc1CN(C1CCN(C(=O)C3(F)CCN(Cc4ccnc(N)c4)CC3)CC1)C2`
RESULT: 9.00

QUERY: Report value only: pKi, Histamine H3 receptor (Homo sapiens), `Nc1cc(CN2CCC(F)(C(=O)N3CCC(N4Cc5ccccc5-c5ccccc5C4)CC3)CC2)ccn1`
RESULT: 8.70

QUERY: Consider the compound `Nc1cc(CN2CCC(F)(C(=O)N3CCC(N4CCNc5ccccc5C4)CC3)CC2)ccn1` tested on Histamine H3 receptor (Homo sapiens); state its pKi.
RESULT: 9.00

QUERY: Name the value of pKi reported for `COc1ccc2c(c1)CN(C1CCN(C(=O)C3(F)CCN(Cc4ccnc(N)c4)CC3)CC1)CCC2` when tested on Histamine H3 receptor (Homo sapiens).
RESULT: 8.70
